Source: patent US12064577B2

assay: Drug uptake into sinus tissue after drug coated balloon delivery, ovine model (HPLC of tissue samples); type: in vivo; settings: other: drug coated balloon expanded in the maxillary sinus, sheep, Example 3 balloon (solvent vapor annealed coating) expanded 5 minutes in maxillary sinus, tissue sampled after 7 days, read-out: mometasone furoate concentration in maxillary sinus tissue
measurement-label: concentration at 7 days (ng/g)
Output spec: scalar in ng/g, unitless text.

Output measured concentration at 7 days for this item: C[C@@H]1C[C@H]2[C@@H]3CCC4=CC(=O)C=C[C@]4(C)[C@@]3(Cl)[C@@H](O)C[C@]2(C)[C@@]1(OC(=O)c1ccco1)C(=O)CCl [mometasone furoate]
146

###

test: Plasma concentration of mometasone furoate after drug coated balloon delivery to ovine maxillary sinus; assay type: in vivo; details: other: drug coated balloon expanded in the maxillary sinus, sheep, day 4 after Example 3 balloon delivery to maxillary sinus, read-out: MF Plasma Concentration
measurement-label: concentration at 4 day (ng/mL)
Output spec: scalar in ng/mL, unitless text.

Output measured concentration at 4 day for this item: C[C@@H]1C[C@H]2[C@@H]3CCC4=CC(=O)C=C[C@]4(C)[C@@]3(Cl)[C@@H](O)C[C@]2(C)[C@@]1(OC(=O)c1ccco1)C(=O)CCl [mometasone furoate]
0.05

###

assay: Plasma concentration of mometasone furoate after drug coated balloon delivery to ovine maxillary sinus; type: in vivo; details: other: drug coated balloon expanded in the maxillary sinus, sheep, day 7 after Example 3 balloon delivery to maxillary sinus, read-out: MF Plasma Concentration
measurement-label: concentration at 7 day

Output measured concentration at 7 day for this item: C[C@@H]1C[C@H]2[C@@H]3CCC4=CC(=O)C=C[C@]4(C)[C@@]3(Cl)[C@@H](O)C[C@]2(C)[C@@]1(OC(=O)c1ccco1)C(=O)CCl [mometasone furoate]
< 0.01 ng/mL
